biological target: Apelin receptor (Homo sapiens); assay: potency against CXCR6 with APJ panel – cell-based, beta-arrestin, DiscoveRx, uHTS hits, dose response (AID 624129); settings: CXCR6 beta-arrestin (DiscoveRx) antagonist cell assay, APJ, dose range 1; call rule not given here
Please answer using one outcome listed in active, inactive

1) CC(=O)OC1C2(CC3N4C(=O)C5(CO)SSC4(CC31O)C(=O)N5C)OC(C)C(C)(C)C2=O (stereo not drawn)	active
2) O=[N+]([O-])c1ccc(Sc2cccc3cccnc23)c([N+](=O)[O-])c1	active
3) CNc1ccc2oc(C[C@H]3O[C@@]4(CC[C@H]3C)O[C@H]([C@H](C)C(=O)c3ccc[nH]3)[C@H](C)C[C@H]4C)nc2c1C(=O)O	active
4) O=c1cc(CSc2ccc(Cl)cc2)nc(-c2ccccn2)[nH]1	active
5) O=C1C=CC2(C=C1)O[C@H](Cc1ccccc1)[C@@H](Cc1ccccc1)O2	active

Task: Which outcome was assigned to "COc1ccc(CCN2C(=O)C=CC2=O)cc1OC" in this test?
Result: active

Task: Which outcome was assigned to "NC(=S)N/N=C/c1ncc(C(F)(F)F)cc1Cl" in this test?
Result: active

Task: Which outcome was assigned to "C=CS(=O)(=O)c1ccc(Oc2ccc(S(=O)(=O)C=C)cc2)cc1" in this test?
Result: active

Task: Which outcome was assigned to "O=[N+]([O-])c1ccc(Sc2cccc[n+]2[O-])c2nonc12" in this test?
Result: active

Task: Which outcome was assigned to "Oc1c(Cl)cc(Cl)c2cccnc12" in this test?
Result: active

Task: Which outcome was assigned to "CCS(=O)(=O)c1ncc(Cl)c(C(=O)Nc2ccc(S(=O)(=O)N(C)c3ccccc3)cc2)n1" in this test?
Result: active

---

target: C-X-C chemokine receptor type 6 (Homo sapiens) (UniProt O00574); assay: potency against CXCR6 with APJ panel – cell-based, beta-arrestin, DiscoveRx, uHTS hits, dose response (AID 624129); settings: CXCR6 beta-arrestin (DiscoveRx) antagonist cell assay, CXCR6, run 2, dose range 1, at 79 µM (top of the series)
Sequence (O00574 whole entry, looked up): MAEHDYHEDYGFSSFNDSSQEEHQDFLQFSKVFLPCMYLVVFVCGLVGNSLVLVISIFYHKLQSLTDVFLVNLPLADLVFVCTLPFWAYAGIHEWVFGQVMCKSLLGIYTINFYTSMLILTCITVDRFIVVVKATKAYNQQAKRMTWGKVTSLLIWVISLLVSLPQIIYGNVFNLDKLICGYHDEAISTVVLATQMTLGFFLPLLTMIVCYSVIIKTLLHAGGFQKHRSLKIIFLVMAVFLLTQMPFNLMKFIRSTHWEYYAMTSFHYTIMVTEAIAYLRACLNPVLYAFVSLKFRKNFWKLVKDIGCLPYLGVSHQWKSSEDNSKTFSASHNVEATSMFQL
MEASURED PARAMETER: inhibition (%)
Answers are plain numbers, in %.

1) Cc1ccc(NC(=O)c2nc(S(=O)(=O)Cc3ccccc3C)ncc2Cl)cc1C	104
2) NC(=O)c1ccccc1NCC(=O)c1ccc(Cl)cc1	36.4
3) CCCC/C=C1/CCC(CN(C)C)C1=O (centres undefined)	110

Task: Tell us which inhibition value is on record for CC(O)CN(CC(C)O)c1ccc2c(c1)Cc1cc([N+](=O)[O-])ccc1-2 (centres undefined)
Result: 76

---

target: C-X-C chemokine receptor type 6 (Homo sapiens) (UniProt O00574); test: potency against CXCR6 with APJ panel – cell-based, beta-arrestin, DiscoveRx, uHTS hits, dose response (AID 624129); conditions: CXCR6 beta-arrestin (DiscoveRx) antagonist cell assay, CXCR6, run 2, dose range 1
Binarize IC50 at 9 µM; below is yes, at or above is no.

Would you please look over these solved cases?
1. C/C(=N\NC(=O)C1COc2ccccc2O1)c1ccccn1 (stereo not drawn)	no
2. Cc1ccc(/C=N/NC(=S)N2CCOCC2)cc1	yes
3. Cc1cc(S(=O)(=O)c2ccc(Cl)cc2)nc(S(=O)(=O)c2ccc(Cl)cc2)c1C#N	yes
4. O=C1C(=C(c2ccccc2)N2CCOCC2)Cc2ccccc21	no
5. O=[N+]([O-])c1ccc(Sc2cccc[n+]2[O-])c2nonc12	no

Task: Field: below-cutoff. Rule: recorded IC50 strictly less than 9 µM. Subject: "O=[N+]([O-])/C=C/c1c(Cl)cccc1Cl"
Result: no

Task: Field: below-cutoff. Rule: recorded IC50 strictly less than 9 µM. Subject: "COC(CNC(=O)c1cc(C(=O)c2c(-c3c(Cl)cccc3Cl)noc2C)c[nH]1)OC"
Result: no

Task: Field: below-cutoff. Rule: recorded IC50 strictly less than 9 µM. Subject: "CC(=O)OCCNc1cc(SCc2ccco2)c2nonc2c1[N+](=O)[O-]"
Result: no

Task: Field: below-cutoff. Rule: recorded IC50 strictly less than 9 µM. Subject: "CS(=O)(=O)c1ncc(Cl)c(C(=O)Nc2ccc3ccccc3c2)n1"
Result: no

Task: Field: below-cutoff. Rule: recorded IC50 strictly less than 9 µM. Subject: "N#CC(C#N)=C1C=CC=CN1/C(=C\c1ccco1)C(=O)c1ccc(Cl)cc1"
Result: no

Task: Field: below-cutoff. Rule: recorded IC50 strictly less than 9 µM. Subject: "CCN(c1ccccc1)S(=O)(=O)c1ccc(NC(=O)c2nc(S(C)(=O)=O)ncc2Cl)cc1"
Result: no
